B1: POU domain, class 3, transcription factor 4, residues 280 to 335; numbered along this chain, P49335 (parent)
chain: KKRTSIEVSVKGVLETHFLKCPKPAAQEISSLADSLQLEKEVVRVWFCNRRQKEKR

- Variants of: B1
- EXPERIMENT_NOTES: abundance fitness (aPCA) (normalised: wild type 0, dead -1); higher = more abundant; growth selection in yeast, the domain comes from the species named
- CONDITIONS_USED: Homo sapiens
Could you label it fulfilled if measured abundance fitness is -0.06 or higher, and not fulfilled otherwise?

Look over these answered cases.
POLYMER_SEQUENCE | GROUP
KKRTSIEVSVKGVLETHFLWCPKPAAQEISSLADSLQLEKEVVRVWFCNRRQKEKR [K20W] | not fulfilled
KKRTSITVSVKGVLETHFLKCPKPAAQEISSLADSLQLEKEVVRVWFCNRRQKEKR [E7T] | fulfilled
KKRTSIEVSVKGVLETHKLKCPKPAAQEISSLADSLQLEKEVVRVWFCNRRQKEKR [F18K] | not fulfilled

Request: Form field: abundance fitness at least -0.06? Entry: KNRTSIEVSVKGVLETHFLKCPKPAAQEISSLADSLQLEKEVVRVWFCNRRQKEKR [K2N]
Response: fulfilled

Request: Given KKRTSIEVSVKGVLETHFLKSPKPAAQEISSLADSLQLEKEVVRVWFCNRRQKEKR [C21S] , state whether its abundance fitness is at least -0.06.
Response: not fulfilled

Request: # check: abundance fitness of KKRSSIEVSVKGVLETHFLKCPKPAAQEISSLADSLQLEKEVVRVWFCNRRQKEKR [T4S] is greater than or equal to -0.06
Response: fulfilled

Request: For this variant, is measured abundance fitness -0.06 or higher? KKRTSIEVSVKGVLETMFLKCPKPAAQEISSLADSLQLEKEVVRVWFCNRRQKEKR [H17M]
Response: fulfilled

Request: I'd appreciate it if you could say whether KKRTSIEVSVKGVLETHFLTCPKPAAQEISSLADSLQLEKEVVRVWFCNRRQKEKR [K20T] has abundance fitness at least equal to -0.06.
Response: not fulfilled

Request: Please tell me: is the variant KKRTSIEVSVKGVLETHFLKCPKPADQEISSLADSLQLEKEVVRVWFCNRRQKEKR [A26D] at or over -0.06 in terms of abundance fitness?
Response: fulfilled

Request: Evaluate KKRTSIEVSVKGVLETHFLKCPKPAAQEISSLATSLQLEKEVVRVWFCNRRQKEKR [D34T] : abundance fitness at minimum -0.06?
Response: not fulfilled

Request: Quick check, abundance fitness >= -0.06? KKRDSIEVSVKGVLETHFLKCPKPAAQEISSLADSLQLEKEVVRVWFCNRRQKEKR [T4D]
Response: fulfilled

Request: Decide: is the reported value of abundance fitness for KKRTSIEVSVKGVLETHFLKCPKPAAQEISSLADSLQLEKEVVRTWFCNRRQKEKR [V45T] equal to or greater than -0.06?
Response: fulfilled

Request: Threshold query (abundance fitness >= -0.06) on KKRTSIEVSVKGVLETHFLKCPKPAAQEISSLADSLQLEKEQVRVWFCNRRQKEKR [V42Q]
Response: not fulfilled

Request: Quick check: does KKRTSIEVSVKGVLETHFLKCPKPAAQEISSLADSLQLEKEVVRVWFKNRRQKEKR [C48K] have abundance fitness greater than or equal to -0.06?
Response: fulfilled

Request: API: above_or_equal(metric=abundance fitness, cutoff=-0.06) for item KKRTSIEHSVKGVLETHFLKCPKPAAQEISSLADSLQLEKEVVRVWFCNRRQKEKR [V8H]
Response: fulfilled

Request: Kindly determine if abundance fitness recorded for KKRTSIEVSVKGVLETHFLKCPKPAAQEISSLADSLQLEKEVVRVAFCNRRQKEKR [W46A] is above or exactly -0.06.
Response: not fulfilled

Request: Has KKRTSIEVSVKGVLETHPLKCPKPAAQEISSLADSLQLEKEVVRVWFCNRRQKEKR [F18P] a recorded abundance fitness greater than or equal to -0.06?
Response: not fulfilled

Request: Is the recorded value of abundance fitness equal to or greater than -0.06 for this variant? KKRTSIEISVKGVLETHFLKCPKPAAQEISSLADSLQLEKEVVRVWFCNRRQKEKR [V8I]
Response: fulfilled

Request: Form field: abundance fitness at least -0.06? Entry: KKRTSIEVSVKGVLFTHFLKCPKPAAQEISSLADSLQLEKEVVRVWFCNRRQKEKR [E15F]
Response: not fulfilled

Request: I'd appreciate it if you could say whether KKRTSIEVSVKGVLETHFLKCPKPAAQEISSLADSLQLEKEVVWVWFCNRRQKEKR [R44W] has abundance fitness at least equal to -0.06.
Response: not fulfilled

Request: Determine whether this variant has abundance fitness no lower than -0.06: KKRTSIEVSVKGVLETHFLKCPKPAAQEISSLADDLQLEKEVVRVWFCNRRQKEKR [S35D]
Response: fulfilled
